Experiment notes: Mouse plasma stability (A)
Experimental context: pooled mouse plasma, 37° C., 60 min
Endpoint label: Mouse Plasma Stability, time point 60 min
Number first, unit second: that is the form wanted.

// recorded Mouse Plasma Stability, time point 60 min for CCN(CC)CCOC(=O)c1ccc(N)cc1 [Procaine, reference compound] : 0.44%

###

Target system: human MC3R (Homo sapiens)
Sequence (P41968 whole entry): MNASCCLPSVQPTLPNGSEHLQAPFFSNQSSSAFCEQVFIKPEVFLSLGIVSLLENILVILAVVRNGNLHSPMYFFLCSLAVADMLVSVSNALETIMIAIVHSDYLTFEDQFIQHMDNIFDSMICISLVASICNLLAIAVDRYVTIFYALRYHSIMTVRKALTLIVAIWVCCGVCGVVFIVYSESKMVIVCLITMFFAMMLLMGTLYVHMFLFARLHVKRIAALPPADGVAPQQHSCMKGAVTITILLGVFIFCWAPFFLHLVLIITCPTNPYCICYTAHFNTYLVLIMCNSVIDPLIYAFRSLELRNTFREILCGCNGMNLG
Experiment notes: Intracellular cAMP levels in live cells, MC3R agonist activity
Experimental context: cAMP split-luciferase reporter cell line stably expressing human MC3R; direct agonist effect, measurement window 1
Non-standard residues stand in square brackets, D forms with d. Residues, ends and D or L forms follow the SMILES beside them. Phe(4-Br) = N[C@@H](Cc1ccc(Br)cc1)C(=O)O; Nle = CCCC[C@H](N)C(=O)O
Endpoint label: EC50

CCCC[C@H](NC(C)=O)C(=O)N[C@H](C)C(=O)N[C@@H](Cc1c[nH]cn1)C(=O)N[C@@H](Cc1ccc(Br)cc1)C(=O)N[C@@H](CCCNC(=N)N)C(=O)N[C@H](Cc1c[nH]c2ccccc12)C(=O)N[C@@H](CC(=O)O)C(=O)N[C@@H](CCCNC(=N)N)C(=O)N[C@@H](Cc1ccccc1)C(=O)NCC(=O)O [CTX-1165] (Ac-[Nle][dA]H[Phe(4-Br)]R[dW]DRFG-OH); 3 nM

// recorded EC50 for CCCC[C@H](NC(C)=O)C(=O)N[C@H](C)C(=O)N[C@@H](Cc1c[nH]cn1)C(=O)N[C@@H](Cc1ccccc1)C(=O)N[C@@H](CCCNC(=N)N)C(=O)N[C@H](Cc1c[nH]c2ccccc12)C(=O)N[C@@H](C)C(=O)N[C@@H](CCCNC(=N)N)C(=O)N[C@@H](Cc1ccccc1)C(=O)NCC(=O)O [CTX-1528] (Ac-[Nle][dA]HFR[dW]ARFG-OH) : 1.9 nM
